# targetUnderTest: VP1 capsid protein on BKV pseudovirions of genotype II (GBR-12; AB263920) (BK virus genotype II (GBR-12))
# assayComment: cell-based or functional assay
assayMetric: Neutralization PSV IC50 (mg/L)
Please state the figure in mg/L; there is no need to write the unit.

>  <binder>
antibody C11P1 (antibody, V domains shown) VH: QVQLQESGPGLVKPSETLSLTCTVSGGSIRNSYWSWIRQPPGKGLEWIGYIYYTGTTNSNPSLKSRATISVHMSQNQISLKLNSVTPADTAVYYCAQGGGSGDLHYWGQGTLVTVSS VL: NFMLTQPASVSGSPGQSITISCTGTRSDVGGYNYVSWYQQHPGKAPKLMIYDISSRPSGVSNRFSASKSGNTASLTISGLQAEDEADYYCISFATGYTWVFGGGTRLTVL

>  <measurementUnits>
mg/L

>  <Neutralization PSV IC50>
0.0015

$$$$

Could you now look at the following binder, please?
Input line: // lookup Neutralization PSV IC50 for antibody C4P7 (antibody, V domains shown) VH: EVQLLESGGGLVQPGGSLRLSCAASGFTFSSYAMSWVRQAPGKGLEWVSSLTGSGGSTYYRDSVKGRFTIFRDNSKKTLYMQMNSLRAEDTAVYYCAKEGAYSYDFWYFDLWGRGTLVTVSS VL: EIVLTQSPGTLSLSPGERATLSCRASQTVSGNYLAWYQQKPGQSPSLLIYGASSRATGIPDRFTGSGSGTDFTLTISRLEPADFAVYYCQQYGRPLTFGGGTKVEIK
Output line: 0.0609
